These entries and their values trace back to PubChem BioAssay AID1159580.

Documented normalized growth across a set of compounds
experiment: chemical genetic growth profiling, strain panel (AID 1159580);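 also: tested at 20 µM; growth read once vehicle control cultures reached saturation at 30 °C; 1 = growth at the plate median or of vehicle wells; lower values mean less growth of the strain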; conditions: S. cerevisiae deletion strains, growth OD, locus YML016C, strain PPZ1, stronger effect = lower value
Out of some 5,500 compounds screened, about 2,000 (36%) were called active. Roughly 18% stayed inconclusive and do not appear here. Some of the results follow.
measured_parameter: normalized growth

{"columns": ["compound", "measured_parameter", "result_number"],
 "data": [
  ["NC[C@@H]1O[C@H](O[C@@H]2[C@@H](CO)OC(O[C@@H]3[C@@H](O)[C@H](N)C[C@H](N)[C@H]3O[C@H]3O[C@H](CO)[C@@H](O)[C@H](O)[C@H]3N)[C@@H]2O)[C@H](N)[C@@H](O)[C@@H]1O (stereo not given in full)", "normalized growth", 0.992],
  ["CC(=O)N1CCN(c2ccc(OCC3CO[C@](Cn4ccnc4)(c4ccc(Cl)cc4Cl)O3)cc2)CC1 (stereo not given in full)", "normalized growth", 0.0722],
  ["NCC(O)CC(=O)O (stereo not given)", "normalized growth", 1.01],
  ["CC(=O)OCC(=O)[C@@]1(O)CCC2C3C[C@H](C)C4=CC(=O)C=CC4(C)C3[C@@H](O)CC21C (stereo not given in full)", "normalized growth", 1],
  ["CC(C)Nc1nc(Cl)nc(NC(C)C)n1", "normalized growth", 1.01],
  ["O=C(O)CN(CCN(CC(=O)O)CC(=O)O)CC(=O)O", "normalized growth", 0.934],
  ["C[C@@H](CO)NC(=O)C1C=C2c3cccc4[nH]cc(c34)C[C@H]2N(C)C1 (stereo not given in full)", "normalized growth", 0.991],
  ["CC1(C)S[C@@H]2[C@H](NC(=O)[C@@H](N)c3ccc(O)cc3)C(=O)N2[C@H]1C(=O)O", "normalized growth", 1.01],
  ["CC1(C)S[C@@H]2C(N3C(=O)[C@@H](c4ccccc4)NC3(C)C)C(=O)N2[C@H]1C(=O)O (stereo not given in full)", "normalized growth", 1.01],
  ["O=C(O)c1cc(O)ccc1O", "normalized growth", 0.995]
]}
